# measurement.target: GalNAc(b1-3)Gal(a1-4)Gal(b1-4)GlcNAc(b1-3)Gal(b1-4)Glc
# test.protocol: glycan array binding signal (z-score within array); higher = stronger binding
# run.parameters: glycan notation: IUPAC condensed, linker removed
This is one part of a sample in which the strongest signals are shown more often than they occur.
Recorded glycan array binding signal (z-score) values for a group of binders are listed next.

[ask] What does the data say about its glycan array binding signal (z-score)? Entry: DC-ASGPR L+GEE (Homo sapiens) (protein) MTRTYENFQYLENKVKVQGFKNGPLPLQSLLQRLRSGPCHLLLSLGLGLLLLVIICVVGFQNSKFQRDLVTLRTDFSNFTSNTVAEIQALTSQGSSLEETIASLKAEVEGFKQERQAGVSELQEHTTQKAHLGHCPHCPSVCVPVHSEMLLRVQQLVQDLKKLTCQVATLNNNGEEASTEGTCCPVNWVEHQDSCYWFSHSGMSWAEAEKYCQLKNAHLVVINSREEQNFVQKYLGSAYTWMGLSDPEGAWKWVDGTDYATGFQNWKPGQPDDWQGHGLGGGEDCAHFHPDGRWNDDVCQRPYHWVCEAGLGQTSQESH
[reply] 4.06

[ask] What does the data say about its glycan array binding signal (z-score)? Entry: HHL-1 (Homo sapiens), P07306 (protein) TKEYQDLQHLDNEESDHHQLRKGPPPPQPLLQRLCSGPRLLLLSLGLSLLLLVVVCVIGSQNSQLQEELRGLRETFSNFTASTEAQVKGLSTQGGNVGRKMKSLESQLEKQQKDLSEDHSSLLLHVKQFVSDLRSLSCQMAALQGNGSERTCCPVNWVEHERSCYWFSRSGKAWADADNYCRLEDAHLVVVTSWEEQKFVQHHIGPVNTWMGLHDQNGPWKWVDGTDYETGFKNWRPEQPDDWYGHGLGGGEDCAHFTDDGRWNDDVCQRPYRWVCETELDKASQEPPLL
[reply] 5.52

[ask] What does the data say about its glycan array binding signal (z-score)? Entry: EUL D1A second (Oryza sativa) (protein) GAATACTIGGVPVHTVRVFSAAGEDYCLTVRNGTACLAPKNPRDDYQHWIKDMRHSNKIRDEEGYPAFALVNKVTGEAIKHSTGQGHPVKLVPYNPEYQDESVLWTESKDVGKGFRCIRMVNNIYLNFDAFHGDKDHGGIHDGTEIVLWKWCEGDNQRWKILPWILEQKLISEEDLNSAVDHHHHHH
[reply] -0.809
